IC50 values, listed per item
molecular target: human TLR7 (Homo sapiens, UniProt Q9NYK1); construct: expressed in transfected cells; host or cells: HEK cell line (HEK293, as in the primary assay); test: HEK/TLR7 activation assay (R848 stimulation); type: cell-based; conditions: HEK cells transfected with human TLR7
Sequence (Q9NYK1 27-1049): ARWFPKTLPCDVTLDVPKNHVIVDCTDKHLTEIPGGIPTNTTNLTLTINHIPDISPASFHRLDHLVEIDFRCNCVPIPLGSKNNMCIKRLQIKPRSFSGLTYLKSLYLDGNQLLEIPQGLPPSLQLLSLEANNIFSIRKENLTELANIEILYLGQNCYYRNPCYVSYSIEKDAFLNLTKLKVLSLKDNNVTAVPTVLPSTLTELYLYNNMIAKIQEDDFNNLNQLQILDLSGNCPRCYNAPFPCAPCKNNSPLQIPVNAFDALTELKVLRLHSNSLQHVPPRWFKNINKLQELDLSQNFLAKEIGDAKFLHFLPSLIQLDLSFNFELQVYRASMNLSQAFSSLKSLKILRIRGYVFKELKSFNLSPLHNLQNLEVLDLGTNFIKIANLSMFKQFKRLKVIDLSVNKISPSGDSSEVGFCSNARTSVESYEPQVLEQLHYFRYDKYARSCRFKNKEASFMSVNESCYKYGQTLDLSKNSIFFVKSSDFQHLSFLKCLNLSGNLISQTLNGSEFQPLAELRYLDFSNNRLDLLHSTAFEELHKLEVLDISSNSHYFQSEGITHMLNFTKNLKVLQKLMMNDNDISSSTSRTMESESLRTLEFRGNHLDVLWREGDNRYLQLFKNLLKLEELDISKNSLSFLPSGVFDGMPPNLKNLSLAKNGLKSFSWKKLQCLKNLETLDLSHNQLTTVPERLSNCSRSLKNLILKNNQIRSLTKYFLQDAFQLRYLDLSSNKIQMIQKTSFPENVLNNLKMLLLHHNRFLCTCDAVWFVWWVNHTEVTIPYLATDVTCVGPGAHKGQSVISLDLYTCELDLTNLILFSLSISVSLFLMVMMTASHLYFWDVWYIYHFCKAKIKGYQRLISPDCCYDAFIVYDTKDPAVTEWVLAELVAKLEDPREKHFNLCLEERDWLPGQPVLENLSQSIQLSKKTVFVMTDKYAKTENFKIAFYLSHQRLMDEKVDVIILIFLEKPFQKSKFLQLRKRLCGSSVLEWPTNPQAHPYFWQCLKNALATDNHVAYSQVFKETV

[[record]]
structure_string = "CN1CCCN(CCCOc2ccc(-c3nc4ccc(OCCCN5CCCN(C)CC5)cc4o3)cc2)CC1"
result = "620 nM"

[[record]]
structure_string = "C1=CCN(CCCOc2ccc(-c3nc4ccc(OCCCN5CC=CCC5)cc4o3)cc2)CC1"
result = "1550 nM"

[[record]]
structure_string = "O[C@H]1CC[C@H](NCCCOc2ccc(-c3nc4ccc(OCCCN[C@H]5CC[C@H](O)CC5)cc4o3)cc2)CC1"
result = "8410 nM"

[[record]]
structure_string = "CCN(CC)CCN(CC)CCCOc1ccc(-c2nc3ccc(OCCCN(CC)CCN(CC)CC)cc3o2)cc1"
result = "580 nM"

[[record]]
structure_string = "CN(C)CCCOCCCN(C)CCCOc1ccc(-c2nc3ccc(OCCCN(C)CCCOCCCN(C)C)cc3o2)cc1"
result = "> 2500 nM"

[[record]]
structure_string = "CN(C)[C@@H]1CCN(CCCOc2ccc(-c3nc4ccc(OCCCN5CC[C@@H](N(C)C)C5)cc4o3)cc2)C1"
result = "430 nM"


Request: What does the data say about its IC50? Entry: CN(C)CCCNCCCOc1ccc(-c2nc3ccc(OCCCNCCCN(C)C)cc3o2)cc1
Result: 9050 nM
